assay: Standard protocol for determination of kcat and KM (continuous spectrophotometric assay, Acetyl CoA hydrolysis at 235 nm); assay type: biochemical; conditions: purified protein; about 23° C.; 20 mM HEPES pH 6.8, 10% ethylene glycol, 0.2 mM acetyl CoA
Kindly supply the reported Kcat values for the records listed here.
Please answer using the number first and the unit second.

If you can, please state the reported Kcat value of SEQ ID NO: 280: GAT polypeptide (protein, 10_4H7, GAT polypeptide) MIEVKPINAEDTYEIRHRILRPNQPLEACMYETDLLGGTFHLGGYYRGKLVSIASFHQAEHPELEGQKQYQLRGMATLEGYREQKAGSTLIRHAEELLRKKGADLLWCNARTSASGYYKKLGFSEQGEVYDIPPTGPHILMYKKLT .
1.87 s⁻¹

Try this molecule too: SEQ ID NO: 386: GAT polypeptide (protein, 6_18C7, GAT polypeptide) MIEVKPINAEDTYEIRHRILRPNQPLEACRYETDLLGGTFHLGGYYRGKLISIASFHQAEHPELEGQKQYQLRGMATLEGYREQKAGSTLIRHAEELLRKKGADLLWCNARISASGYYKKLGFSEQGEVYDIPPVGPHILMYKKLT
0.537 s⁻¹

Try this molecule too: SEQ ID NO: 330: GAT polypeptide (protein, 15_12D6, GAT polypeptide) MIEVKPINAEDTYEIRHRILRPNQPLEACMYETDLLRGAFHLGGYYRGKLVSIASFHQAEHPELEGQKQYQLRGMATLEGYREQKAGSTLIRHAEELLRKKGADLLWCNARTSASGYYKKLGFSEQGEVYDTPPVGPHILMYKKLT
2.477 s⁻¹
